Here is a set of molecules with reported IC50 for Rho-associated protein kinase 1 (Homo sapiens, UniProt Q13464), compiled from the literature.
propertyName: IC50

{"columns": ["molecule", "targetUnderTest", "propertyName", "measValue"],
 "data": [
  ["CC1(C(=O)N2Cc3ccc(-c4ncc(F)c(Nc5ccc(-c6cn[nH]c6)cc5)n4)cc3C2)CC(F)(F)C1", "Rho-associated protein kinase 1 (Homo sapiens, UniProt Q13464)", "IC50", "> 10 µM"],
  ["O=C(NC(CN1CCCC1)c1cccc(F)c1)c1cccc(-c2ccc3[nH]ncc3c2)c1 (centres unmarked)", "Rho-associated protein kinase 1 (Homo sapiens, UniProt Q13464)", "IC50", "0.126 µM"],
  ["NCC1CCN(S(=O)(=O)c2cccc3cncc(Cl)c23)CC1", "Rho-associated protein kinase 1 (Homo sapiens, UniProt Q13464)", "IC50", "< 1 µM"],
  ["CC(C)c1nc(Nc2ccc(-c3cn[nH]c3)cc2)nc(N2CCc3cc(C(=O)N4CC(F)(F)C4)n(C)c3C2)n1", "Rho-associated protein kinase 1 (Homo sapiens, UniProt Q13464)", "IC50", "> 4.5 µM"],
  ["COc1cc(-n2nc(C(F)(F)F)cc2Nc2ccc3[nH]ncc3c2Cl)ccc1OCC(=O)NC(C)C", "Rho-associated protein kinase 1 (Homo sapiens, UniProt Q13464)", "IC50", "0.3 to 3 µM"],
  ["O=C(Nc1cccc(-n2nc(Nc3ccc4[nH]ncc4c3)c3ccccc32)c1)c1c[nH]cn1", "Rho-associated protein kinase 1 (Homo sapiens, UniProt Q13464)", "IC50", "3 to 10 µM"],
  ["CN(C(=O)c1cc2ccc(-c3nccc(Nc4ccc(-c5cn[nH]c5)cc4)n3)cc2[nH]1)C1CCC1", "Rho-associated protein kinase 1 (Homo sapiens, UniProt Q13464)", "IC50", "9.29 µM"],
  ["COc1cc(NC(=O)[C@H](N)Cc2ccccc2C(F)(F)F)ccc1-c1cn[nH]c1", "Rho-associated protein kinase 1 (Homo sapiens, UniProt Q13464)", "IC50", "0.0199 µM"]
]}
